As shown below, each of these compounds has a reported IC50 value.
- TESTED_SYSTEM: Avi-KRAS G12D (1-169) GppNHp/RAF1 RBD-3xFLAG (52-151) (Homo sapiens, UniProt P01116, G12D)
- Construct: Avi-KRAS G12D (1-169)
- Sequence (P01116 1-169 isoform P01116-2 G12D): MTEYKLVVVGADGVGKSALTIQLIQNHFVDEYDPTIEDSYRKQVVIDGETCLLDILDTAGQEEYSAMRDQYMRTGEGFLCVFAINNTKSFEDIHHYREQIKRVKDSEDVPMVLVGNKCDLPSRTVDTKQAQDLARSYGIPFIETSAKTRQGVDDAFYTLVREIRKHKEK
- EXPERIMENT_NOTES: Raf1-KRAS G12D-GppNHP disruption HTRF assay (Biological Example 1)
- Type: binding
- CONDITION_PARAMETERS: KRAS G12D-GppNHp/RAF1 RBD HTRF

Take a look at these entries with their results.
{"QUERY_SMILES": "CCN(c1nc(OC[C@@]23CCCN2C[C@H](F)C3)nc2c(F)c(-c3ccc(F)c4sc(N)c(C#N)c34)c(C(F)(F)F)cc12)[C@@H]1CCN(C(C)=O)[C@H]1C", "IC50": "0.1 to 1 µM"}
{"QUERY_SMILES": "N#Cc1c(N)sc2c(F)ccc(-c3c(C(F)(F)F)cc4c(N5CCCCCC5)nc(OC[C@@]56CCCN5C[C@H](F)C6)nc4c3F)c12", "IC50": "0.1 to 1 µM"}

Read the next record carefully.
Lookup: Name the recorded IC50 of the compound listed here: CN1C[C@@H](N(C)c2nc(OC[C@@]34CCCN3C[C@H](F)C4)nc3c(F)c(-c4ccc(F)c5sc(N)c(C#N)c45)c(C(F)(F)F)cc23)CC1=O
Found: 0.1 to 1 µM

###

- TESTED_SYSTEM: Avi-KRAS G12D (1-169) GppNHp/RAF1 RBD-3xFLAG (52-151) (Homo sapiens, UniProt P01116, G12D)
- Construct: Avi-KRAS G12D (1-169)
- EXPERIMENT_NOTES: Raf1-KRAS G12D-GppNHP disruption HTRF assay (Biological Example 1)
- Type: binding
- CONDITION_PARAMETERS: KRAS G12D, GppNHp-loaded; Table 11
pIC50: −log10 of the molar value.
METRIC: pIC50

{"MOLECULE": "CCN(CC)c1nc(OC[C@@]23CCCN2C[C@H](F)C3)nc2c(F)c(-c3ccc(F)c4sc(N)c(C#N)c34)c(C(F)(F)F)cc12 [Compound 152]", "REPORTED_VALUE": "> 7.00"}
{"MOLECULE": "CN(C[C@H](F)CO)c1nc(OC[C@@]23CCCN2C[C@H](F)C3)nc2c(F)c(-c3ccc(F)c4sc(N)c(C#N)c34)c(C(F)(F)F)cc12 [Compound 216]", "REPORTED_VALUE": "6.00 to 7.00"}
{"MOLECULE": "C[C@H]1COCCN1c1nc(OC[C@@]23CCCN2C[C@H](F)C3)nc2c(F)c(-c3ccc(F)c4sc(N)c(C#N)c34)c(C(F)(F)F)cc12 [Compound 135]", "REPORTED_VALUE": "> 7.00"}
{"MOLECULE": "CN(C[C@@H](F)CO)c1nc(OC[C@@]23CCCN2C[C@H](F)C3)nc2c(F)c(-c3ccc(F)c4sc(N)c(C#N)c34)c(C(F)(F)F)cc12 [Compound 218]", "REPORTED_VALUE": "6.00 to 7.00"}
{"MOLECULE": "CN(c1nc(OCC23CCCN2CCC3)nc2c(F)c(-c3ccc(F)c4sc(N)nc34)c(C(F)(F)F)cc12)C1CC(CO)C1 (centres unmarked) [Compound 4]", "REPORTED_VALUE": "5.00 to 6.00"}

Please turn your attention to the following entry.
Lookup: Specify measured pIC50 for CN(c1nc(OC[C@@]23CCCN2C[C@H](F)C3)nc2c(F)c(-c3ccc(F)c4sc(N)c(C#N)c34)c(C(F)(F)F)cc12)[C@]1(CC#N)C[C@@H](O)C1 (atropisomer, axis not shown) [Compound 254] .
Found: 6.00 to 7.00

###

- TESTED_SYSTEM: Avi-KRAS G12V (1-169) GppNHp/RAF1 RBD-3xFLAG (52-151) (Homo sapiens, UniProt P01116, G12V)
- Construct: Avi-KRAS G12V (1-169)
- Sequence (P01116 1-169 isoform P01116-2 G12V): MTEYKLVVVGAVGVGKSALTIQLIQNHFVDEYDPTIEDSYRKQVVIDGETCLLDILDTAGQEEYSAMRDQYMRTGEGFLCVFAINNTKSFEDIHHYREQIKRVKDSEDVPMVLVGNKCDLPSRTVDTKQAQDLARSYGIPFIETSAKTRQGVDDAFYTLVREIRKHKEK
- EXPERIMENT_NOTES: Raf1-KRAS G12V-GppNHP disruption HTRF assay (Biological Example 1)
- Format: binding
- CONDITION_PARAMETERS: KRAS G12V, GppNHp-loaded; class symbols
pIC50: −log10 of the molar value.
This section presents molecules with their documented pIC50 values.

The cases that follow already have their pIC50 on record.
{"MOLECULE": "CCN(c1nc(OC[C@@]23CCCN2C[C@H](F)C3)nc2c(F)c(-c3ccc(F)c4sc(N)c(C#N)c34)c(C(F)(F)F)cc12)[C@H]1CC(=O)N(C2CC2)C1 (atropisomer, axis not shown)", "METRIC": "pIC50", "REPORTED_VALUE": "> 7.00"}
{"MOLECULE": "CCN(c1nc(OC[C@@]23CCCN2C[C@H](F)C3)nc2c(F)c(-c3ccc(F)c4sc(N)c(C#N)c34)c(C(F)(F)F)cc12)[C@H]1C[C@H]2CCN(C)C(=O)N2C1 (atropisomer, axis not shown)", "METRIC": "pIC50", "REPORTED_VALUE": "> 7.00"}
{"MOLECULE": "CN(c1nc(OC[C@@]23CCCN2C[C@H](F)C3)nc2c(F)c(-c3ccc(F)c4sc(N)c(C#N)c34)c(C(F)(F)F)cc12)[C@H]1CC(=O)N(C2CC2)C1 (atropisomer, axis not shown)", "METRIC": "pIC50", "REPORTED_VALUE": "> 7.00"}

Read the next record carefully.
Lookup: # return recorded pIC50 for entry CCC(=O)N1CC[C@H]2[C@@H]1CN2c1nc(OC[C@@]23CCCN2C[C@H](F)C3)nc2c(F)c(-c3ccc(F)c4sc(N)c(C#N)c34)c(C(F)(F)F)cc12 (atropisomer, axis not shown)
Found: 5.00 to 6.00

###

- TESTED_SYSTEM: Avi-KRAS WT (1-169) GppNHp/RAF1 RBD-3xFLAG (52-151) (Homo sapiens, UniProt P01116)
- Construct: Avi-KRAS WT (1-169)
- Sequence (P01116 1-169 isoform P01116-2): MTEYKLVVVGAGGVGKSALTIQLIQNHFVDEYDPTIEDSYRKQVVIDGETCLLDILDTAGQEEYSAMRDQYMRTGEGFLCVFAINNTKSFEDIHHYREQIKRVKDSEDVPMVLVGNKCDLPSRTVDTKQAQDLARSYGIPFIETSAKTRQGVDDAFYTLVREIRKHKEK
- EXPERIMENT_NOTES: Raf1-KRAS WT-GppNHP disruption HTRF assay (Biological Example 1)
- Type: binding
- CONDITION_PARAMETERS: KRAS WT, GppNHp-loaded; Table 11
METRIC: IC50

{"COMPOUND": "CN(C[C@H](O)CO)c1nc(OC[C@@]23CCCN2C[C@H](F)C3)nc2c(F)c(-c3ccc(F)c4sc(N)c(C#N)c34)c(C(F)(F)F)cc12 [Compound 79]", "METRIC": "IC50", "REPORTED_VALUE": "0.1 to 1 µM"}
{"COMPOUND": "CN(c1nc(OC[C@@]23CCCN2C[C@H](F)C3)nc2c(F)c(-c3ccc(F)c4sc(N)c(C#N)c34)c(C(F)(F)F)cc12)[C@@H]1C[C@H](O)[C@H]1CC#N [Compound 182]", "METRIC": "IC50", "REPORTED_VALUE": "0.1 to 1 µM"}

Continue with the compound presented below.
Lookup: Input CCN(C)c1nc(OC[C@@]23CCCN2C[C@H](F)C3)nc2c(F)c(-c3ccc(F)c4sc(N)c(C#N)c34)c(C(F)(F)F)cc12 [Compound 81] , output reported IC50.
Found: 0.1 to 1 µM

###

- TESTED_SYSTEM: Avi-KRAS G12D (1-169) GppNHp/RAF1 RBD-3xFLAG (52-151) (Homo sapiens, UniProt P01116, G12D)
- Construct: Avi-KRAS G12D (1-169)
- EXPERIMENT_NOTES: Raf1-KRAS G12D-GppNHP disruption HTRF assay (Biological Example 1)
- Format: binding
- CONDITION_PARAMETERS: KRAS G12D-GppNHp/RAF1 RBD HTRF
METRIC: IC50

Sample records with IC50:
{"COMPOUND": "N#Cc1cnn2c1CN(c1nc(OC[C@@]34CCCN3C[C@H](F)C4)nc3c(F)c(-c4ccc(F)c5sc(N)c(C#N)c45)c(C(F)(F)F)cc13)CC2", "IC50": "100 to 1000 nM"}
{"COMPOUND": "CCN(c1nc(OC[C@@]23CCCN2C[C@H](F)C3)nc2c(F)c(-c3ccc(F)c4sc(N)c(C#N)c34)c(C(F)(F)F)cc12)[C@H]1C[C@H]2CN(C)C(=O)N2C1 (atropisomer, axis not shown; (aS))", "IC50": "< 100 nM"}
{"COMPOUND": "N#Cc1c(N)sc2c(F)ccc(-c3c(C(F)(F)F)cc4c(N5[C@@H]6CO[C@H]7C6OC[C@H]75)nc(OC[C@@]56CCCN5C[C@H](F)C6)nc4c3F)c12", "IC50": "100 to 1000 nM"}
{"COMPOUND": "CN(C)C(=O)c1nn2c(c1Cl)CN(c1nc(OC[C@@]34CCCN3C[C@H](F)C4)nc3c(F)c(-c4ccc(F)c5sc(N)c(C#N)c45)c(C(F)(F)F)cc13)CC2", "IC50": "< 100 nM"}

Turning now to a further compound:
Lookup: Quote IC50 with test system Avi-KRAS G12D (1-169) GppNHp/RAF1 RBD-3xFLAG (52-151) (Homo sapiens, UniProt P01116, G12D) for CC(=O)N1C[C@@H](N(C)c2nc(OC[C@@]34CCCN3C[C@H](F)C4)nc3c(F)c(-c4ccc(F)c5sc(N)c(C#N)c45)c(C(F)(F)F)cc23)C[C@@H]1C
Found: < 100 nM
